- experimental-protocol: Activated partial thromboplastin time (APTT) was determined by the influence on doubling of a human clotting time assay
- Format: functional
Hi there, I'd appreciate the recorded Activity for every entry that follows.
Numbers only, in µM.

Sample records with Activity:
smiles_string=C[C@H](Cc1ccccc1)Nc1ccncc1S(=O)(=O)N[C@@H](Cc1ccc(N)cc1)C(=O)N1CCC(CCF)CC1 endpoint_name=Activity reported=7.1
smiles_string=O=C([C@H](Cc1ccc(O)cc1)NS(=O)(=O)c1cnccc1N[C@H](CO)Cc1ccccc1)N1CCC(CCF)CC1 endpoint_name=Activity reported=1.91
smiles_string=COc1ccc(C[C@@H](CO)Nc2ccncc2S(=O)(=O)N[C@@H](Cc2ccc(N)cc2)C(=O)N2CCC(CCF)CC2)cc1 endpoint_name=Activity reported=2.9
smiles_string=CCNC[C@H](Cc1ccccc1)Nc1ccncc1S(=O)(=O)N[C@@H](Cc1ccc(N)cc1)C(=O)N1CCC(CCF)CC1 endpoint_name=Activity reported=3.2
smiles_string=O=C([C@H](Cc1ccc(F)cc1)NS(=O)(=O)c1cnccc1N[C@H](CO)Cc1ccccc1)N1CCC(CCF)CC1 endpoint_name=Activity reported=11.7
smiles_string=Nc1ccc(C[C@H](NS(=O)(=O)c2cnccc2N[C@@H](Cc2ccccc2)CN2CCNC(=O)C2)C(=O)N2CCC(CCF)CC2)cc1 endpoint_name=Activity reported=2.43
smiles_string=Nc1ccc(C[C@H](NS(=O)(=O)c2cnccc2N[C@H](CO)Cc2ccccc2)C(=O)N2CCC(CCO)CC2)cc1 endpoint_name=Activity reported=7.4
smiles_string=CC(=O)N1CCN(C[C@H](Cc2ccccc2)Nc2ccncc2S(=O)(=O)N[C@@H](Cc2ccc(N)cc2)C(=O)N2CCC(CCF)CC2)CC1 endpoint_name=Activity reported=2.4
smiles_string=CNC[C@H](CC1CCCCC1)Nc1ccncc1S(=O)(=O)N[C@@H](Cc1ccc(N)cc1)C(=O)N1CCC(CCF)CC1 endpoint_name=Activity reported=2.8
smiles_string=CNc1ccc(C[C@H](NS(=O)(=O)c2cnccc2N[C@H](CO)Cc2ccccc2)C(=O)N2CCC(CCF)CC2)cc1 endpoint_name=Activity reported=4.1

For every listed record, write down its Activity.
1. Nc1ccc(C[C@H](NS(=O)(=O)c2cnccc2N[C@H](CO)Cc2ccccc2)C(=O)N2CCC(CCF)CC2)cc1
2. COc1ccc(C[C@@H](C)Nc2ccncc2S(=O)(=O)N[C@@H](Cc2ccc(N)cc2)C(=O)N2CCC(CCF)CC2)cc1
3. CNC[C@H](Cc1ccccc1)Nc1ccncc1S(=O)(=O)N[C@@H](Cc1ccc(N)cc1)C(=O)N1CCC(CCF)CC1

[2.5, 9, 2.4]

Count: 8. Required value per item: Activity.
1. COCCN(CCOC)C[C@H](Cc1ccccc1)Nc1ccncc1S(=O)(=O)N[C@@H](Cc1ccc(N)cc1)C(=O)N1CCC(CCF)CC1
2. COc1ccc(C[C@H](NS(=O)(=O)c2cnccc2N[C@H](CO)Cc2ccccc2)C(=O)N2CCC(CCF)CC2)cc1
3. Nc1ccc(C[C@H](NS(=O)(=O)c2cnccc2N[C@H](COCCO)Cc2ccccc2)C(=O)N2CCC(CCF)CC2)cc1
4. O=C([C@H](Cc1ccccc1)NS(=O)(=O)c1cnccc1N[C@H](CO)Cc1ccccc1)N1CCC(CCF)CC1
5. Nc1ccc(C[C@H](NS(=O)(=O)c2cnccc2N[C@H](CO)CC2CCCCC2)C(=O)N2CCC(CCF)CC2)cc1
6. CN(C)C[C@H](Cc1ccccc1)Nc1ccncc1S(=O)(=O)N[C@@H](Cc1ccc(N)cc1)C(=O)N1CCC(CCF)CC1
7. CCCNC[C@H](Cc1ccccc1)Nc1ccncc1S(=O)(=O)N[C@@H](Cc1ccc(N)cc1)C(=O)N1CCC(CCF)CC1
8. Nc1ccc(C[C@H](NS(=O)(=O)c2cnccc2N[C@@H](Cc2ccccc2)CN2CCCC2)C(=O)N2CCC(CCF)CC2)cc1

1: 3.7; 2: 8.1; 3: 2.5; 4: 11.5; 5: 2.6; 6: 3.4; 7: 3.3; 8: 3.4

Lab note: each compound below needs its Activity filled in.
1. CCN(CC)C[C@H](Cc1ccccc1)Nc1ccncc1S(=O)(=O)N[C@@H](Cc1ccc(N)cc1)C(=O)N1CCC(CCF)CC1
2. CCC1CCN(C(=O)[C@H](Cc2ccc(N)cc2)NS(=O)(=O)c2cnccc2N[C@H](CO)Cc2ccccc2)CC1
3. Nc1ccc(C[C@H](NS(=O)(=O)c2cnccc2N[C@@H](Cc2ccccc2)CN2CCOCC2)C(=O)N2CCC(CCF)CC2)cc1
4. COc1ccc(C[C@@H](CO)Nc2ccncc2S(=O)(=O)N[C@@H](Cc2ccc(N)cc2)C(=O)N2CCC(CCF)CC2)cc1OC
5. CCCCNC[C@H](Cc1ccccc1)Nc1ccncc1S(=O)(=O)N[C@@H](Cc1ccc(N)cc1)C(=O)N1CCC(CCF)CC1
6. Nc1ccc(C[C@H](NS(=O)(=O)c2cnccc2N[C@@H](Cc2ccccc2)CN2CCCCC2)C(=O)N2CCC(CCF)CC2)cc1

1. 3.56
2. 5.5
3. 2.9
4. 2.5
5. 5.1
6. 6.1

Consider the following items and state reported Activity for each.
1. Nc1ccc(C[C@H](NS(=O)(=O)c2cnccc2N[C@H](CO)Cc2ccccc2)C(=O)N2CCC(CCCl)CC2)cc1
2. Nc1ccc(C[C@H](NS(=O)(=O)c2cnccc2N[C@@H](Cc2ccccc2)CN2CCC(O)CC2)C(=O)N2CCC(CCF)CC2)cc1
3. Nc1ccc(C[C@H](NS(=O)(=O)c2cnccc2N[C@H](CNCCO)Cc2ccccc2)C(=O)N2CCC(CCF)CC2)cc1

[4.4, 1.73, 2]
